target or system: human Nav1.7 (Homo sapiens (Human), UniProt Q15858)
Sequence (Q15858 whole entry): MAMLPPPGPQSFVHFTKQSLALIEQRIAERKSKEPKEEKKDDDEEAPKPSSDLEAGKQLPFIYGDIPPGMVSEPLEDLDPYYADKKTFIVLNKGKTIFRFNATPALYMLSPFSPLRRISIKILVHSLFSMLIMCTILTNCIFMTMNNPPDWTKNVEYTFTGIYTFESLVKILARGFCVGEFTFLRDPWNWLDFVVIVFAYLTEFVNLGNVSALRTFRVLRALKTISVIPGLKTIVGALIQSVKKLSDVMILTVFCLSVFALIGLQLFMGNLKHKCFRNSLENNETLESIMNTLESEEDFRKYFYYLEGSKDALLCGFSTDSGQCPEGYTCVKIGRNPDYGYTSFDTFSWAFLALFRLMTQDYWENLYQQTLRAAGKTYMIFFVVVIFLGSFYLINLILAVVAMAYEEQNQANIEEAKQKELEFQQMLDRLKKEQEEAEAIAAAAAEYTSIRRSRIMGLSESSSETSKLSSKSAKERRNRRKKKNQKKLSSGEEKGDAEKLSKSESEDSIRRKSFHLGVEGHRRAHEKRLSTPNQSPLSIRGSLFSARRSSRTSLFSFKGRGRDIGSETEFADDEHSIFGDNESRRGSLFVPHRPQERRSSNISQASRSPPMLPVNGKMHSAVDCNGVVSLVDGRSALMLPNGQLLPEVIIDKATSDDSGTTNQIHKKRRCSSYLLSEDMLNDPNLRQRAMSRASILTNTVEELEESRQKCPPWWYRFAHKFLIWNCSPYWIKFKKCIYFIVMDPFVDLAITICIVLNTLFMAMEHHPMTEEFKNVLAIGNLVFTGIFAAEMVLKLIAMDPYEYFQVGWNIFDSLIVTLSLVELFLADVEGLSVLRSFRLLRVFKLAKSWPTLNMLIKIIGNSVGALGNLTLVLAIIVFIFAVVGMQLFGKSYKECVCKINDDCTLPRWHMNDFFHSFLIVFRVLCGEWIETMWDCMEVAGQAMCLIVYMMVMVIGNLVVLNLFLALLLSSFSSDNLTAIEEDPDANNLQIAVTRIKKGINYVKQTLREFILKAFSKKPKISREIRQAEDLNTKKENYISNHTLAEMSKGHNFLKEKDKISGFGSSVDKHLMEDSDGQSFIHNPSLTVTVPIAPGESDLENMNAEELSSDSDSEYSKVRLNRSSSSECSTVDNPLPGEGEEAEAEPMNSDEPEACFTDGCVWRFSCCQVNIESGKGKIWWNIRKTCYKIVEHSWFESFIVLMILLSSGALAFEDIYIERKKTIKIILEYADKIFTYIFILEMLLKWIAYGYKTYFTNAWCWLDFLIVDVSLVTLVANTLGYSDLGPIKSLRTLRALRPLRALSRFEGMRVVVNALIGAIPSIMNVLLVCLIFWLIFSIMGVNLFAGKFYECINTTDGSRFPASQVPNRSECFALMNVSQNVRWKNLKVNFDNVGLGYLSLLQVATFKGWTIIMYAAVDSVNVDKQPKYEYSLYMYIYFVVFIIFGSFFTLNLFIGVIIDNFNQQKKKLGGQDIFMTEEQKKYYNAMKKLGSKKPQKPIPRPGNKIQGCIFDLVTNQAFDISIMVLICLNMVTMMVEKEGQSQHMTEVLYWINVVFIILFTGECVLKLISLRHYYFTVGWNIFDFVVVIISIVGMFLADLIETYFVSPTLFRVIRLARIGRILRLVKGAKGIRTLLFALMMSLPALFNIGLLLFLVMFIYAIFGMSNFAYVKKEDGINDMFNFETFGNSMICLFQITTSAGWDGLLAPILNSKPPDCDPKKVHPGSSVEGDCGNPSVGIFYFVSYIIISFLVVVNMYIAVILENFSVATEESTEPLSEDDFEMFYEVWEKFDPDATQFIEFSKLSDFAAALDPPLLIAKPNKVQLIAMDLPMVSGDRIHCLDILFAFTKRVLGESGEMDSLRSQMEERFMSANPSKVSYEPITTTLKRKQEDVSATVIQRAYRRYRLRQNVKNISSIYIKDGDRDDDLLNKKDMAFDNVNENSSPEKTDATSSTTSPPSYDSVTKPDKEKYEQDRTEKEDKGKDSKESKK
Sequence (Q07699 19-218 partner): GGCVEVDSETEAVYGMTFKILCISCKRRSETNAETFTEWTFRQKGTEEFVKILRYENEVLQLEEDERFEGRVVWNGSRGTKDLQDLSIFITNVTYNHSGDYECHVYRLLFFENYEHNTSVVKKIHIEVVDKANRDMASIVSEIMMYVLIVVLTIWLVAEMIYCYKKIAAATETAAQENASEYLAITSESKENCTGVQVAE
assay comment: Human Nav1.7 inhibitory activity evaluation (automated patch clamp QPatch16X, HEK293A cells stably expressing human Nav1.7 and human Navβ1)
Type: cell-based
condition summary: human Nav1.7, automated patch clamp
Method: Test Example 1: Human Nav1.7 Inhibitory Activity Evaluation A cell line in which human Nav1.7 and human Navβ1 subunits were stably expressed in HEK293A cells was used. […] The amount of current through human Nav1.7 was recorded using a fully automatic patch clamp device QPatch16X (Sophion Biosciences) at room temperature. […]
Form field: IC50 (one value per entry).

- molecule: "COC1c2cc(C(F)(F)F)ccc2OC[C@@H]1NC(=O)c1cc2n(n1)CCC(COCC(F)(F)F)O2 (single isomer, unassigned) [598 (isomer B)]"
  IC50: "< 1000 nM"
- molecule: "O=C(N[C@H]1COc2ccc(-c3cccnc3)cc2C1)c1cc2n(n1)CCN(c1ccc(F)cc1)C2"
  IC50: "< 1000 nM"
- molecule: "O=C(N[C@H]1COc2ccc(C(F)(F)F)cc2C1O)c1cc2n(n1)CC(CCCOCC(F)F)O2 (stereo partly shown) [Example 609]"
  IC50: "< 10000 nM"
- molecule: "N#Cc1ccc2c(c1)C[C@@H](NC(=O)c1cc3n(n1)CCN(CC(F)(F)C(F)(F)F)C3)CO2"
  IC50: "< 10000 nM"
- molecule: "CC1CCn2nc(C(=O)N[C@H]3COc4ccc(COCC(F)(F)F)cc4C3)cc2OC1 (stereo partly shown)"
  IC50: "< 10000 nM"
- molecule: "O=C(N[C@H]1COc2ccc(Cl)cc2C1)c1cc2n(n1)CC(CCNCC(F)(F)F)O2 (single isomer, unassigned) [226 (isomer B)]"
  IC50: "< 1000 nM"
- molecule: "O=C(N[C@H]1COc2ccc(COCC3CC3)cc2C1)c1cc2n(n1)CCC(C(F)(F)F)O2 (stereo partly shown)"
  IC50: "< 1000 nM"
- molecule: "O=C(N[C@H]1COc2ccc(C(F)(F)F)nc2C1)c1cc2n(n1)CCC(c1ccccc1F)O2 (stereo partly shown)"
  IC50: "< 1000 nM"
- molecule: "O=C(N[C@H]1COc2ccc(COCC(F)(F)F)cc2C1)c1cc2n(n1)CC(COCC1CC1)O2 (single isomer, unassigned) [186 (isomer B)]"
  IC50: "< 1000 nM"
- molecule: "O=C(NC1COc2ccccc2C1)c1cc2n(n1)CCN(c1ccc(F)cc1)C2 (stereo not shown)"
  IC50: "< 1000 nM"

* * *

Here, each record is paired with measured IC50 data.
target or system: human Nav1.7 (Homo sapiens (Human))
assay comment: Human Nav1.7 inhibitory activity evaluation (automated patch clamp QPatch16X, HEK293A cells stably expressing human Nav1.7 and human Navβ1)
Type: cell-based
condition summary: HEK293A cells stably expressing human Nav1.7 and human Navβ1, automated patch clamp QPatch16X

- compound: "CN1Cc2nc(C(=O)NCCc3ccccc3)cn2CC1c1ccccc1 (centres unmarked)"
  IC50: "< 10000 nM"
- compound: "N#Cc1ccc2c(c1)C[C@@H](NC(=O)c1cc3n(n1)CCC(COc1ccccc1)O3)CO2 (some centres unmarked)"
  IC50: "< 1000 nM"
- compound: "COc1ncccc1C1CCn2nc(C(=O)N[C@H]3COc4ccc(C#N)cc4C3)cc2O1 (some centres unmarked)"
  IC50: "< 1000 nM"
- compound: "O=C(N[C@H]1COc2ccc(Cl)cc2C1)c1cn2c(n1)CCC(C(F)(F)F)C2 (single isomer, unassigned) [Example 2 (isomer A)]"
  IC50: "< 1000 nM"
- compound: "O=C(N[C@H]1COc2ccc(-c3ccncc3)cc2C1)c1cc2n(n1)CCC(c1ccccc1F)O2 (some centres unmarked)"
  IC50: "< 1000 nM"
- compound: "O=C(N[C@H]1COc2ccc(-c3ccccn3)cc2C1)c1cc2n(n1)CCC(COCC1CC1)O2 (single isomer, unassigned) [111 (isomer A)]"
  IC50: "< 1000 nM"
- compound: "O=C(NC1COc2cccc(Br)c2C1)c1cn2c(n1)CCC(C(F)(F)F)C2 (single isomer, unassigned) [9 (isomer B)]"
  IC50: "< 1000 nM"
- compound: "O=C(N[C@H]1COc2ccc(CO)cc2C1)c1cc2n(n1)CCC(c1ccccc1F)O2 (some centres unmarked)"
  IC50: "< 10000 nM"
- compound: "O=C(NC1COc2ccc(Br)cc2C1)c1cn2c(n1)CCC(C(F)(F)F)C2 (centres unmarked)"
  IC50: "< 1000 nM"
- compound: "O=C(N[C@H]1COc2ccc(Br)cc2C1)c1cn2c(n1)CCC(C(F)(F)F)C2 (some centres unmarked)"
  IC50: "< 1000 nM"
- compound: "O=C(N[C@H]1COc2ccc(CC(F)F)cc2C1)c1cc2n(n1)CCC(COC(F)(F)F)O2 (single isomer, unassigned) [136 (isomer B)]"
  IC50: "< 1000 nM"

* * *

target or system: human Nav1.7 (Homo sapiens (Human), UniProt Q15858)
assay comment: Human Nav1.7 inhibitory activity evaluation (automated patch clamp QPatch16X, HEK293A cells stably expressing human Nav1.7 and human Navβ1)
Type: cell-based
condition summary: human Nav1.7, automated patch clamp
pIC50: −log10 of the molar value.
readout kind: pIC50

- compound: "O=C(N[C@H]1COc2ccc(C(F)(F)F)cc2C1)c1cc2n(n1)CCC(OCC(F)(F)F)CO2 (single isomer, unassigned) [257 (isomer A)]"
  readout kind: "pIC50"
  meas value: "> 6.00"
- compound: "O=C(N[C@H]1COc2ccc(C(F)(F)F)cc2C1F)c1cc2n(n1)CCN(C1COC1)C2 (stereo partly drawn) [Example 643]"
  readout kind: "pIC50"
  meas value: "> 5.00"
- compound: "Cc1cc(-c2c(C(=O)N[C@H]3COc4ccc(C(F)(F)F)cc4C3)nc3n2CCOC3)[nH]n1 [Example 512]"
  readout kind: "pIC50"
  meas value: "> 5.00"
- compound: "CCCC1CCn2nc(C(=O)N[C@H]3COc4ccc(Cl)cc4C3)cc2O1 (stereo partly drawn) [Example 389]"
  readout kind: "pIC50"
  meas value: "> 6.00"
- compound: "O=C(N[C@H]1COc2ccc(CCOC(F)F)cc2C1)c1cc2n(n1)CC(CCOC(F)F)O2 (single isomer, unassigned) [217 (isomer A)]"
  readout kind: "pIC50"
  meas value: "> 6.00"
- compound: "O=C(N[C@H]1COc2ccc(-c3cnccn3)cc2C1)c1cc2n(n1)CC(CCOCC(F)(F)F)O2 (stereo partly drawn) [Example 456]"
  readout kind: "pIC50"
  meas value: "> 6.00"
- compound: "O=C(N[C@H]1COc2ccc(C(F)(F)F)cc2C1O)c1cc2n(n1)CCN(CCOCC1CC1)C2 (stereo partly drawn) [Example 652]"
  readout kind: "pIC50"
  meas value: "> 5.00"
- compound: "N#Cc1ccc2c(c1)C[C@@H](NC(=O)c1cc3n(n1)CCC(CCOC(F)(F)F)O3)CO2 (single isomer, unassigned) [144 (isomer A)]"
  readout kind: "pIC50"
  meas value: "> 6.00"
- compound: "O=C(N[C@H]1COc2ccc(C(F)(F)F)cc2C1O)c1cc2n(n1)CC(CSCC(F)(F)F)O2 (stereo partly drawn) [Example 587]"
  readout kind: "pIC50"
  meas value: "> 5.00"

* * *

target or system: human Nav1.7 (Homo sapiens (Human))
assay comment: Human Nav1.7 inhibitory activity evaluation (automated patch clamp QPatch16X, HEK293A cells stably expressing human Nav1.7 and human Navβ1)
Assay type: cell-based
condition summary: human Nav1.7, automated patch clamp
readout kind: IC50

- molecule: "O=C(N[C@H]1COc2ccc(C(F)(F)F)cc2C1O)c1cc2n(n1)CC(CCCOCC(F)F)O2 (single isomer, unassigned) [610 (isomer A)]"
  meas value: "< 1 µM"
- molecule: "O=C(N[C@H]1COc2ccc(COCC(F)(F)F)cc2C1)c1cc2n(n1)CCC(CC1CCOCC1)O2 (stereo partly drawn)"
  meas value: "< 1 µM"
- molecule: "N#Cc1ccc2c(c1)C[C@@H](NC(=O)c1cc3n(n1)CCC(C(F)(F)F)CO3)CO2 (stereo partly drawn)"
  meas value: "< 10 µM"
- molecule: "O=C(N[C@H]1COc2ccc(CC(F)F)cc2C1)c1cc2n(n1)CC(COC(F)(F)F)O2 (single isomer, unassigned) [198 (isomer A)]"
  meas value: "< 10 µM"
- molecule: "N#Cc1ccc2c(c1)C[C@@H](NC(=O)c1cc3n(n1)CC(CCOCC1CC1)O3)CO2 (stereo partly drawn) [Example 201]"
  meas value: "< 1 µM"
- molecule: "O=C(N[C@H]1COc2ccc(COCC(F)(F)F)cc2C1)c1cc2n(n1)CC(C(F)(F)F)O2 (stereo partly drawn) [Example 183]"
  meas value: "< 10 µM"
